Assay: Induction of double-strand break in BamH1-linearized pBR322 plasmid DNA assessed as linear DNA under aerobic condition relative to C-1027
Conditions: Bacillus amyloliquefaciens
TEST_READOUT: Activity (%)

(1) C=C1Oc2cc(OC)cc(C(=O)O[C@H]3COC(=O)C[C@H](N)c4cc(O)c(c(Cl)c4)O[C@@H]4C#C/C=C/3C#CC3=CC=C[C@@]34O[C@@H]3OC(C)(C)[C@@H](N(C)C)[C@@H](O)[C@H]3O)c2NC1=O
(2) C=C1Oc2cc(OC)cc(C(=O)O[C@H]3COC(=O)C[C@H](N)c4ccc(c(Cl)c4)O[C@@H]4C#C/C=C/3C#CC3=CC=C[C@@]34O[C@@H]3OC(C)(C)[C@@H](N(C)C)[C@@H](O)[C@H]3O)c2NC1=O
(3) C=C1Oc2cc(O)cc(C(=O)O[C@H]3COC(=O)C[C@H](N)c4cc(O)c(c(Cl)c4)O[C@@H]4C#C/C=C/3C#CC3=CC=C[C@@]34O[C@@H]3OC(C)(C)[C@@H](N(C)C)[C@@H](O)[C@H]3O)c2NC1=O
(4) C=C1Oc2cc(OC)cc(C(=O)O[C@H]3COC(=O)C[C@H](N)c4ccc(c(O)c4)O[C@@H]4C#C/C=C/3C#CC3=CC=C[C@@]34O[C@@H]3OC(C)(C)[C@@H](N(C)C)[C@@H](O)[C@H]3O)c2NC1=O
Task: Sort the items above on Activity, descending. Reply with the labels, ordered as the question asks.
Output: 1, 4, 2, 3
(1: 1%, 4: 0.25%, 2: 0.033%, 3: 0.02%)
